- system_name: T1, Western Reserve B5 on cells infected with VVddeGFP Western Reserve virus (Vaccinia virus, Western Reserve strain, UniProt Q01227 18-317)
- T1 construct: also called VV B5; WR
- method_description: flow cytometry, SKOV3 cells infected with WR VV
readout_label: EC50
Could you write the number and then its unit?

Record excerpt, results attached:
binder="A048-H5L5 (antibody, V domains shown) VH: QVTLKESGPVLVKPTETLTLTCTASGFSFSSSYYMCWVRQPPGKALEWIACIYTSSGSAYYANWAKGRFTISRDTSKSQVVLTMTNMDPVDTATYFCVRNAVGSSYYLYLWGQGTLVTVSS VL: EQVLTQSPATLSLSPGERATLSCQASQSVAGNNYLSWYQQKPGQAPRLLIYSVSTLASGIPARFSGSGSGTDFTLTISSLEPEDFAVYYCQGYYNDGIWAFGQGTKLEIK" result="1.36 nM"
binder="A048-H4L4 (antibody, V domains shown) VH: EVQLLESGGGLVQPGGSLRLSCAASGFSFSSSYYMCWVRQAPGKGLEWIACIYTSSGSAYYADSVKGRFTISRTSSTTVTLQMNSLRAEDTAVYYCVRNAVGSSYYLYLWGQGTLVTVSS VL: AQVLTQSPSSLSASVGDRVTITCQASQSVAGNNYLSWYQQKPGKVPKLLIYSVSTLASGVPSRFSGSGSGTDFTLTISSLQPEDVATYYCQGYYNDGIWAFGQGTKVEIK" result="2.36 nM"

Now consider a different binder.
Find the recorded EC50 belonging to A048-H4L2 (antibody, V domains shown) VH: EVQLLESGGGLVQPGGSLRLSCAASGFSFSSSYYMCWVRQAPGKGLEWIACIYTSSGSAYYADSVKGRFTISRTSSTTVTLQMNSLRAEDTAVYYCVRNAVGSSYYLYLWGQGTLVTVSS VL: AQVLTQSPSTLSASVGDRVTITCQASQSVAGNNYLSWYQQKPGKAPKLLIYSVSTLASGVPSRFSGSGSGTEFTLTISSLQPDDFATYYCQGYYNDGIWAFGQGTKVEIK and report it.
0.71 nM

Taken from patent US20240309070A1.
